This collection of values is drawn from ChEMBL document CHEMBL5331085.

System: Enterococcus faecium
ASSAY PROCEDURE: Antimicrobial activity against Enterococcus faecium ATCC 29212 incubated for 16 to 20 hrs by CLSI based broth dilution method
Type: functional
TEST CONTEXT: Enterococcus faecium, ATCC 29212, time 16-20 hrs; read-out: MIC
MEASURED ENDPOINT: MIC (µg/mL)
Only the number, expressed in µg/mL, is required.

STRUCTURE STRING	TARGET OF ASSAY	DISPLAY UNIT	MIC
CCCCCC[N+](C)(C)CCCOc1ccc2ccccc2c1-c1c(OCCC[N+](C)(C)CCCCCC)ccc2ccccc12.[Br-].[Br-]	Enterococcus faecium	µg/mL	4
CCCCCCCC[N+](C)(C)CCCOc1cccc(-c2cccc(OCCC[N+](C)(C)CCCCCCCC)c2)c1.[Br-].[Br-]	Enterococcus faecium	µg/mL	0.5
CCCCCCCCCC[N+](C)(C)CCCOc1ccc(-c2ccc(OCCC[N+](C)(C)CCCCCCCCCC)cc2)cc1.[Br-].[Br-]	Enterococcus faecium	µg/mL	0.5
CCCCCCCCCC[N+](C)(C)CCCOc1cccc(-c2cccc(OCCC[N+](C)(C)CCCCCCCCCC)c2)c1.[Br-].[Br-]	Enterococcus faecium	µg/mL	0.5

Data request: Recorded MIC for CCCCCCCCCCCC[N+](C)(C)CCCOc1ccccc1-c1ccccc1OCCC[N+](C)(C)CCCCCCCCCCCC.[Br-].[Br-] , please?
Data returned: 4

Data request: Recorded MIC for CCCCCC[N+](C)(C)CCCOc1ccccc1-c1ccccc1OCCC[N+](C)(C)CCCCCC.[Br-].[Br-] , please?
Data returned: 16

Data request: Recorded MIC for CCCCCCCC[N+](C)(C)CCCOc1ccc(-c2ccc(OCCC[N+](C)(C)CCCCCCCC)cc2)cc1.[Br-].[Br-] , please?
Data returned: 0.5

---

ASSAY PROCEDURE: Cytotoxicity against human BGC cells assessed as inhibition of cell growth incubated for 72 hrs by CCK-8 assay
Format: toxicity, cell-based
IC50 at 72 h values by entry
Only the number, expressed in µg/mL, is required.

STRUCTURE STRING	QUANTITATIVE RESULT
CCCCCC[N+](C)(C)CCCOc1cccc(-c2cccc(OCCC[N+](C)(C)CCCCCC)c2)c1.[Br-].[Br-]	18.8

With those in mind, consider the next compound.
Data request: Recorded IC50 at 72 h for C=C[C@]1(C)C[C@@H](OC(=O)CS[C@@H]2C[C@H]3CC[C@@H](C2)N3C)[C@]2(C)[C@H](C)CC[C@]3(CCC(=O)[C@H]32)[C@@H](C)[C@@H]1O , please?
Data returned: 16

---

Test system: Escherichia coli
ASSAY PROCEDURE: Antimicrobial activity against Escherichia coli ATCC 25922 incubated for 16 to 20 hrs by CLSI based broth dilution method
Format: functional
TEST CONTEXT: Escherichia coli, ATCC 25922; time 16-20 hrs; read-out: MIC
MEASURED ENDPOINT: MIC (µg/mL)
Only the number, expressed in µg/mL, is required.

Please review the following examples before continuing.
COMPOUND	MIC, µg/mL
C[C@@H](O)[C@H]1C(=O)N2C(C(=O)O)=C(S[C@@H]3CN[C@H](C(=O)N(C)C)C3)[C@H](C)[C@H]12 [MEROPENEM]	0.063
CCCCCCCCCC[N+](C)(C)CCCOc1ccc(-c2ccc(OCCC[N+](C)(C)CCCCCCCCCC)cc2)cc1.[Br-].[Br-]	2

With those in mind, consider the next compound.
Data request: Recorded MIC for CCCCCCCCCC[N+](C)(C)CCCOc1ccc2ccccc2c1-c1c(OCCC[N+](C)(C)CCCCCCCCCC)ccc2ccccc12.[Br-].[Br-] , please?
Data returned: 16
